target: human KDR (human, UniProt P35968 20-1356); experiment: cell-based or functional assay
Sequence (P35968 20-1356): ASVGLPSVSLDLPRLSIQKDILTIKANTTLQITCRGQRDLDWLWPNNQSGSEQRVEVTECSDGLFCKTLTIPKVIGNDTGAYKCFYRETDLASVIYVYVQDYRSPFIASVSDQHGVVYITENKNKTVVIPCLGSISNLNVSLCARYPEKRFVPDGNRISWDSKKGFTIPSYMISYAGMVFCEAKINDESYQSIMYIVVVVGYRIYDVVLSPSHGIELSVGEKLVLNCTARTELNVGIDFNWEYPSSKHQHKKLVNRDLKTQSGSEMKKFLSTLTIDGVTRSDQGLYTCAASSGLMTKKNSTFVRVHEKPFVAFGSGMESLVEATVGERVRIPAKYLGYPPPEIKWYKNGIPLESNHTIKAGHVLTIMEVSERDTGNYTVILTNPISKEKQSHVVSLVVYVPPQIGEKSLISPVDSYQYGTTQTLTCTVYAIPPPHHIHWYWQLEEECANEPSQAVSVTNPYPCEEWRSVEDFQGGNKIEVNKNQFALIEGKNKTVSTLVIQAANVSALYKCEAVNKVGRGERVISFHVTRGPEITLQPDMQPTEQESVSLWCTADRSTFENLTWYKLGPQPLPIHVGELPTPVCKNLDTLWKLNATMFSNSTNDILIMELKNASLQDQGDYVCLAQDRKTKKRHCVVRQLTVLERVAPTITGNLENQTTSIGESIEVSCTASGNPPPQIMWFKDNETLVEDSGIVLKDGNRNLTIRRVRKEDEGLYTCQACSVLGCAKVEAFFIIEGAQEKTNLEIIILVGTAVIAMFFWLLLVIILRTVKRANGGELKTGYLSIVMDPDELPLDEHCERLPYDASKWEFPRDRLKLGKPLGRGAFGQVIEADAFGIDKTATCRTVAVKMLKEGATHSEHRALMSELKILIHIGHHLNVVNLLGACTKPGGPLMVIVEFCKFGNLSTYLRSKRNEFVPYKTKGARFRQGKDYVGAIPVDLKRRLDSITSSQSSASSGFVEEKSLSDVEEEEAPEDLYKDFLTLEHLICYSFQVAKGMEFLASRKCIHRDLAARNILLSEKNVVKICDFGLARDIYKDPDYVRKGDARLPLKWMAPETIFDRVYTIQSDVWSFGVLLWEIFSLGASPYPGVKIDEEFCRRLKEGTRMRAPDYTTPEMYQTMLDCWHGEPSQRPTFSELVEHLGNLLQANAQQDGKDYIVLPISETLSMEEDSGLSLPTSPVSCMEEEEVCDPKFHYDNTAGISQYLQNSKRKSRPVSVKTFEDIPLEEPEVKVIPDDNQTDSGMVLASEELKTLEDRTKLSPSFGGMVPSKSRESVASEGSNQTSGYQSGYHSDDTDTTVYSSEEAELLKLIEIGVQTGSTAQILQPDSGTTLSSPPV
Decision: 6-keto Prostaglandin F1α release, EC50 (nM), N = 1 beneath 6 nM gives YES; 6-keto Prostaglandin F1α release, EC50 (nM), N = 1 meeting or exceeding 6 nM gives NO.

33B1 (antibody, V domains shown, Fully human monoclonal antibody from a XenoMouse hybridoma (IgG2 or IgG4 strain), purified) VH: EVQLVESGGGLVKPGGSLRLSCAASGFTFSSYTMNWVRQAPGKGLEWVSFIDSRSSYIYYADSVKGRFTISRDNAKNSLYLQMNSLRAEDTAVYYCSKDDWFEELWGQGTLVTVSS VL: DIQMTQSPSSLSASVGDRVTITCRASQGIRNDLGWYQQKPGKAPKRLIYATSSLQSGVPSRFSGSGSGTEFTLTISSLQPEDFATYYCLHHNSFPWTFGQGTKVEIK :: NO
32F4 (antibody, V domains shown, Fully human monoclonal antibody from a XenoMouse hybridoma (IgG2 or IgG4 strain), purified) VH: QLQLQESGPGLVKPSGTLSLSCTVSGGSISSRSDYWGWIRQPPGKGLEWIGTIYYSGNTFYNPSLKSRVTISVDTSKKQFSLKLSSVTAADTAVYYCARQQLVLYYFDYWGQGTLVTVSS VL: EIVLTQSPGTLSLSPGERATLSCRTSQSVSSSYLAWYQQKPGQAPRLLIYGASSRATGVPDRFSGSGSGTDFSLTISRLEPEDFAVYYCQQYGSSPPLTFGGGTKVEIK :: YES
24B3 (antibody, V domains shown, Fully human monoclonal antibody from a XenoMouse hybridoma (IgG2 or IgG4 strain), purified) VH: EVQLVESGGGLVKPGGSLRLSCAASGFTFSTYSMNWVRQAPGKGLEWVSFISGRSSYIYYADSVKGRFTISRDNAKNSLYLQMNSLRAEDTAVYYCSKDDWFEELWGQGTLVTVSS VL: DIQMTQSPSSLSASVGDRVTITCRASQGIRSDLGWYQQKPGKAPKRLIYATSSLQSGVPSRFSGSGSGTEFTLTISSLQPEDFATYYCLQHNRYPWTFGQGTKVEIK :: NO
32G7 (antibody, V domains shown, Fully human monoclonal antibody from a XenoMouse hybridoma (IgG2 or IgG4 strain), purified) VH: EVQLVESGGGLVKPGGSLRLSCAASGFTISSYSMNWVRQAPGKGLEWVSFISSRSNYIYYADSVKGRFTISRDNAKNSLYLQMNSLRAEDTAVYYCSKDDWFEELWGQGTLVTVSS VL: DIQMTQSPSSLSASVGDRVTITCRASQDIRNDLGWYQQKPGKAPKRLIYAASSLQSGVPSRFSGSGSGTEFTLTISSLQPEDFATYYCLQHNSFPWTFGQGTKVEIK :: NO
33C3 (antibody, V domains shown, Fully human monoclonal antibody from a XenoMouse hybridoma (IgG2 or IgG4 strain), purified) VH: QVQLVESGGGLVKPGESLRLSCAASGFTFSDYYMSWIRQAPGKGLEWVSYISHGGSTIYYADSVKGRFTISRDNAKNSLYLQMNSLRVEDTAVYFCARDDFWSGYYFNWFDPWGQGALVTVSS VL: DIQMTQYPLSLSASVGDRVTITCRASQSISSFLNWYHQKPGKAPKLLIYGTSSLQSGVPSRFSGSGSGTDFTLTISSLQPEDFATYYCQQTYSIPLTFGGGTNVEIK :: YES

Turning to the following binder.
Ask: Quick check: does 27A3 (antibody, V domains shown, Fully human monoclonal antibody from a XenoMouse hybridoma (IgG2 or IgG4 strain), purified) VH: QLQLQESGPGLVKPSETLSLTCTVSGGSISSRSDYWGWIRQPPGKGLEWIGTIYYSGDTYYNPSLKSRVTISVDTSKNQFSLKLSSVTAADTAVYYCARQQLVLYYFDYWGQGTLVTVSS VL: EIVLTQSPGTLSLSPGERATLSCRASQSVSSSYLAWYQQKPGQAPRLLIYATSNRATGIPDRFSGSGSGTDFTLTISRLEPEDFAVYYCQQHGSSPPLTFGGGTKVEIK have 6-keto Prostaglandin F1α release, EC50 (nM), N = 1 under 6 nM?
Reply: YES
